The measured values listed here are drawn from patent US20120178694A1.

Target: biotinylated C3b (UniProt P01024)
Assay: SPR on immobilised C3b; ratio relative to peptide 14
Bridge positions count the residues as written; N and C are the ends. Square brackets hold non-standard residues; d marks the D form. Trp(1-Me) = Cn1cc(C[C@H](N)C(=O)O)c2ccccc21; NMeI = CC[C@H](C)[C@H](NC)C(=O)O; Nle = CCCC[C@H](N)C(=O)O; Sar = CNCC(=O)O

binder: Ac-ICV[Trp(1-Me)]QDW[Sar]AHRCI-NH2 (disulfide 2-12; SMILES CC[C@H](C)[C@H](NC(=O)[C@@H]1CSSC[C@H](NC(=O)[C@@H](NC(C)=O)[C@@H](C)CC)C(=O)N[C@@H](C(C)C)C(=O)N[C@@H](Cc2cn(C)c3ccccc23)C(=O)N[C@@H](CCC(N)=O)C(=O)N[C@@H](CC(=O)O)C(=O)N[C@@H](Cc2c[nH]c3ccccc23)C(=O)N(C)CC(=O)N[C@@H](C)C(=O)N[C@@H](Cc2c[nH]cn2)C(=O)N[C@@H](CCCNC(=N)N)C(=O)N1)C(N)=O, Sar^8, Ile^13; also called peptide 17; Ac-Ic[CV(1-MeW)QDW(N-MeG)AHRC]I-NH2) [Ac-Ile-c[Cys-Val-Trp(Me)-Gln-Asp-Trp-Sar-Ala-His-Arg-Cys]-Ile-NH2]
rkd: 1.7 fold
//
binder: Ac-ICV[Trp(1-Me)]QDW[Sar]AHRC[Nle]-NH2 (disulfide 2-12; SMILES CCCC[C@H](NC(=O)[C@@H]1CSSC[C@H](NC(=O)[C@@H](NC(C)=O)[C@@H](C)CC)C(=O)N[C@@H](C(C)C)C(=O)N[C@@H](Cc2cn(C)c3ccccc23)C(=O)N[C@@H](CCC(N)=O)C(=O)N[C@@H](CC(=O)O)C(=O)N[C@@H](Cc2c[nH]c3ccccc23)C(=O)N(C)CC(=O)N[C@@H](C)C(=O)N[C@@H](Cc2c[nH]cn2)C(=O)N[C@@H](CCCNC(=N)N)C(=O)N1)C(N)=O) [Ac-Ic[CV(1-MeW)QDW(N-MeG)AHRC](Nle)-NH2]
rkd: 1.7 fold
//
binder: Ac-ICV[Trp(1-Me)]QDW[Sar]AHRC[NMeI]-NH2 (disulfide 2-12; SMILES CC[C@H](C)[C@H](NC(C)=O)C(=O)N[C@H]1CSSC[C@@H](C(=O)N(C)[C@H](C(N)=O)[C@@H](C)CC)NC(=O)[C@H](CCCNC(=N)N)NC(=O)[C@H](Cc2c[nH]cn2)NC(=O)[C@H](C)NC(=O)CN(C)C(=O)[C@H](Cc2c[nH]c3ccccc23)NC(=O)[C@H](CC(=O)O)NC(=O)[C@H](CCC(N)=O)NC(=O)[C@H](Cc2cn(C)c3ccccc23)NC(=O)[C@H](C(C)C)NC1=O, Sar^8, (NMe)Ile^13; also called peptide 21; analog 21) [Ac-Ic[CV(1-MeW)QDW(N-MeG)AHRC](N-MeI)-NH2]
rkd: 3.2 fold
